- system.under.test: recombinant human PARP (PARP1) (Homo sapiens, UniProt P09874)
- Construct: Full length human PARP (PARP1) is assembled from PCR fragments; His6 tag with TEV site, from the pFastBac-HTb vector (own knowledge of the vector); made in house; host or cells: insect cells, baculovirus (Bac-to-Bac, Gibco-BRL)
- Sequence (P09874 whole entry, the tested form may be a part): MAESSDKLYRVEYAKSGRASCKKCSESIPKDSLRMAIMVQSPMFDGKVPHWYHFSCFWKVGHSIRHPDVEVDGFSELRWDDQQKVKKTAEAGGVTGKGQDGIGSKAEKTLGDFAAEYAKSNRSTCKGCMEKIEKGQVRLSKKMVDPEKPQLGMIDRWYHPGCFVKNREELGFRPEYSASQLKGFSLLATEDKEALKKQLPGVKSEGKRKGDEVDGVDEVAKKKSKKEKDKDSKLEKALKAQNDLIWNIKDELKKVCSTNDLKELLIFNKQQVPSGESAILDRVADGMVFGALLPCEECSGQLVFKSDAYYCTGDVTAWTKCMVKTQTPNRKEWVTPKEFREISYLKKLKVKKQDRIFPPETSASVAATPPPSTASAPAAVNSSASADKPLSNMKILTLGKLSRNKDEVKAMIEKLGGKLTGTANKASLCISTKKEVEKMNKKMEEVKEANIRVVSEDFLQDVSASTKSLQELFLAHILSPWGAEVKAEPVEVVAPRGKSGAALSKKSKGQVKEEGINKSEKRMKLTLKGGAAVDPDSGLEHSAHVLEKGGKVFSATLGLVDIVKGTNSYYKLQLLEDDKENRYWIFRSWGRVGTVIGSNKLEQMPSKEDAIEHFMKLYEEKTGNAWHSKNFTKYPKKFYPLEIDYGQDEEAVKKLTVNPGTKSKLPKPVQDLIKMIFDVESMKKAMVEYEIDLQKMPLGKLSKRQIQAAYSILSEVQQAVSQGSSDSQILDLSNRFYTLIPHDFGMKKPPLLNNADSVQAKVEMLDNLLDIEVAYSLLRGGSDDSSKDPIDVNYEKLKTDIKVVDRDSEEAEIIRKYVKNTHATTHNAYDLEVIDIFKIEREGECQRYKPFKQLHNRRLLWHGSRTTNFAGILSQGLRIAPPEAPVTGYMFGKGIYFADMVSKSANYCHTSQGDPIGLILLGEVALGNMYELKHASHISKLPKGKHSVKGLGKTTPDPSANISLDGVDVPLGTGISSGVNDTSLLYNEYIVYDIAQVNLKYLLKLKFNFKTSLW
- assay.name: PARP enzyme assay, Method A (radioactivity or 'ELISA' enzyme assay with partially purified enzyme)
- Format: biochemical
- conditions.used: recombinant human PARP preparation, radioactive or ELISA enzyme assay
Structures can show the parent of a compound that is named as a salt.
measured.property: IC50 (µM)
Reply numerically in µM, unit not repeated.

Would you please look over these solved cases?
1. CCc1cc(-c2ccc(CNCc3nccn3C)s2)c(C)[nH]c1=O [Example 161, dihydrochloride] | 1.3
2. CCc1cc(-c2ccc(S(=O)(=O)N3CCC(N4CCCCC4)CC3)s2)c(C)[nH]c1=O [Example 67, hydrochloride] | 0.3

Just so you know, measured IC50 for CCc1cc(-c2ccc(CN3CCC(c4ccccc4)CC3)s2)c(C)[nH]c1=O [Example 184, hydrochloride] came out at 2.7

Notebook: CCc1cc(-c2ccc(S(=O)(=O)N3CCNCC3)s2)c(C)[nH]c1=O [Example 94, hydrochloride] , IC50 read as 1.4

These entries and their values trace back to patent US8173682B2.
